assay-text: Plasma and brain levels after intraperitoneal injection
Assay type: in vivo, C57BL6 mice
experimental-conditions: mouse, brain, ip; C57BL6 mice, 1 h after i.p. 30 mg/kg, two female mice; read-out: average level in brain
Excerpt: NAZ2329 successfully suppresses the cell proliferation and cell migration of the differentiated glioblastoma cells, as well as cell sphere formation (Figs 7 to 8). NAZ2329 is the first cell-permeable R5 RPTP inhibitor. […] Nevertheless, NAZ2329 is a potentially valuable lead therapeutic for the development of drugs that function through allosteric inhibitory mechanisms against PTPs, such as PTPRZ and PTPRG.
readout-type: concentration at 1 h (ng/g)
Answer format: numeric, ng/g implied, no suffix.

stdin: Given CCOc1ccc(C(F)(F)F)cc1CSc1ccsc1C(=O)NS(=O)(=O)c1ccccc1 [NAZ2329] , state its recorded concentration at 1 h.
stdout: 300
